System: K12877-001-R-J1-PDC complex spheroid viability;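 further: spheroids exposed to agents for one week before readout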
assayProcedure: Anticancer human tumor K12877-001-R-J1-PDC patient-derived lung adenocarcinoma cell line growth inhibition [RAS]
assaySetup: curve of first compound; second compound 0.000949 µM
pIC50: −log10 of the molar value.
The reader will find reported pIC50 values listed item by item below.

| molecule | signQualifier | pIC50 |
| --- | --- | --- |
| CC(=O)OC12COC1CC(O)C1(C)C(=O)C(O)C3=C(C)C(OC(=O)C(O)C(NC(=O)OC(C)(C)C)c4ccccc4)CC(O)(C(OC(=O)c4ccccc4)C21)C3(C)C (stereo not drawn) + CCn1c(-c2cc(N3CCN(C)CC3)cnc2C(C)OC)c2c3cc(ccc31)-c1csc(n1)CC(NC(=O)C1CC1C)C(=O)N1CCCC(N1)C(=O)OCC(C)(C)C2 | > | 7.50 |
| CC1(O)CCCC1n1c(=O)c(C(F)F)cc2cnc(NC3CCN(S(C)(=O)=O)CC3)nc21 (stereo not drawn) + CCn1c(-c2cc(N3CCN(C)CC3)cnc2C(C)OC)c2c3cc(ccc31)-c1csc(n1)CC(NC(=O)C1CC1C)C(=O)N1CCCC(N1)C(=O)OCC(C)(C)C2 | = | 5.40 |
| CCC(CC)c1cc(NC2CCC(N)C2)n2nccc2n1 (stereo not drawn) + CCn1c(-c2cccnc2C(C)OC)c2c3cc(ccc31)N1CCOC(CC(NC(=O)C(C(C)C)N(C)C(=O)C3(F)CCN(C(=O)C#CC(C)(C)N(C)C)CC3)C(=O)N3CCCC(N3)C(=O)OCC(C)(C)C2)C1 | = | 5.89 |
| CCc1c2c(nc3ccc(O)cc13)-c1cc3c(c(=O)n1C2)COC(=O)[C@]3(O)CC + CCn1c(-c2cc(N3CCN(C)CC3)cnc2C(C)OC)c2c3cc(ccc31)-c1csc(n1)CC(NC(=O)C1CC1C)C(=O)N1CCCC(N1)C(=O)OCC(C)(C)C2 | = | 8.32 |
| CCC(CC)c1cc(NC2CCC(N)C2)n2nccc2n1 (stereo not drawn) + CCn1c(-c2cc(N3CCN(C)CC3)cnc2C(C)OC)c2c3cc(ccc31)-c1csc(n1)CC(NC(=O)C1CC1C)C(=O)N1CCCC(N1)C(=O)OCC(C)(C)C2 | = | 5.88 |
| CC(C)NCC(C(=O)N1CCN(c2ncnc3c2C(C)CC3O)CC1)c1ccc(Cl)cc1 (stereo not drawn) + CCn1c(-c2cc(N3CCN(C)CC3)cnc2C(C)OC)c2c3cc(ccc31)-c1csc(n1)CC(NC(=O)C1CC1C)C(=O)N1CCCC(N1)C(=O)OCC(C)(C)C2 | = | 5.11 |
| CCN1CCN(Cc2ccc(Nc3ncc(F)c(-c4cc(F)c5nc(C)n(C(C)C)c5c4)n3)nc2)CC1 + CCn1c(-c2cc(N3CCN(C)CC3)cnc2C(C)OC)c2c3cc(ccc31)-c1csc(n1)CC(NC(=O)C1CC1C)C(=O)N1CCCC(N1)C(=O)OCC(C)(C)C2 | < | 6.00 |
| C[C@@H](NC(=O)c1ncnc(N)c1Cl)c1ncc(C(=O)Nc2cc(C(F)(F)F)c(Cl)cn2)s1 + CCn1c(-c2cc(N3CCN(C)CC3)cnc2C(C)OC)c2c3cc(ccc31)-c1csc(n1)CC(NC(=O)C1CC1C)C(=O)N1CCCC(N1)C(=O)OCC(C)(C)C2 | < | 5.00 |

src = PubChem BioAssay AID2060894
